Biological target: 5-Lipoxygenase (Cavia porcellus, UniProt A0A286X958)
Construct: the polymorphonuclear leucocytes were collected and the cytosol fraction was obtained as an enzyme source; endogenous in cells
Sequence (A0A286X958 1-674): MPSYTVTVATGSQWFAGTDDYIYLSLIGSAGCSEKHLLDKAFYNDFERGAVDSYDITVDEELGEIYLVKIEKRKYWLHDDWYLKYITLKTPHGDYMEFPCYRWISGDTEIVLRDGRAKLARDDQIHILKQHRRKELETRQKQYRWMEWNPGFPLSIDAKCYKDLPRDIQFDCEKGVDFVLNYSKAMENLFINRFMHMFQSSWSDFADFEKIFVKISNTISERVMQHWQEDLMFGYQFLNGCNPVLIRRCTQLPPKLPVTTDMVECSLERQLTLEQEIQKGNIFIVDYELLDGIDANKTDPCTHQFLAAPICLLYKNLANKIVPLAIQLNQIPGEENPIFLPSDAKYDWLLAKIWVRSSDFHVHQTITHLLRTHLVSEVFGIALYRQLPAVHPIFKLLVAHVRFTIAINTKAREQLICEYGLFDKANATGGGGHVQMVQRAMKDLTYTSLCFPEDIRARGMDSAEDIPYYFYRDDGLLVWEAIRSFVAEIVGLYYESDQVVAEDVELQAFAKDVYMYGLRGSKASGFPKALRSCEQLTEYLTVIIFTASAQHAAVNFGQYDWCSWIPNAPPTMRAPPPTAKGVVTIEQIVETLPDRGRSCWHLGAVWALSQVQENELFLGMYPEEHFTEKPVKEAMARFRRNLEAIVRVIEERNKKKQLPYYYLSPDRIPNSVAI
Test: 5-Lipoxygenase inhibiting activity (5-hydroxyeicosatetraenoic acid formation from 14C-arachidonic acid, cytosol fraction of polymorphonuclear leucocytes)
Settings: guinea pig polymorphonuclear leucocyte cytosol, 5-hydroxyeicosatetraenoic acid radioactivity
pIC50: −log10 of the molar value.
measured.quantity: pIC50

| compound | pIC50 |
| --- | --- |
| COc1ccc(-c2noc(CCNC(=O)C(=Cc3cc(OC)c(O)c(OC)c3)c3cccs3)c2-c2ccc(OC)cc2)cc1 [Compound 7] | 7.10 |
| COc1ccc(-c2noc(CCNC(=O)C(=Cc3cc(OC)c(O)c(OC)c3)NC(C)=O)c2-c2ccc(OC)cc2)cc1 [Compound 18] | 6.74 |
| COc1ccc(-c2noc(CCNC(=O)C(=Cc3cc(OC)c(O)c(OC)c3)c3ccccn3)c2-c2ccc(OC)cc2)cc1 [Compound 6] | 6.21 |
| COc1ccc(-c2noc(CCNC(=O)C(C#N)=Cc3cc(OC)c(O)c(OC)c3)c2-c2ccc(OC)cc2)cc1 [Compound 2] | 6.19 |
| COc1ccc(-c2noc(CCNC(=O)C(C#N)=CC=Cc3cc(OC)c(O)c(OC)c3)c2-c2ccc(OC)cc2)cc1 [Compound 11] | 6.62 |
| COCC(=Cc1cc(OC)c(O)c(OC)c1)C(=O)NCCc1onc(-c2ccc(OC)cc2)c1-c1ccc(OC)cc1 [Compound 3] | 6.52 |

[A] COc1ccc(-c2noc(CCN(CC(=O)O)C(=O)C=CC=Cc3cc(OC)c(O)c(OC)c3)c2-c2ccc(OC)cc2)cc1 [Compound 23]
[B] COc1ccc(-c2noc(CCNC(=O)C(=Cc3cc(OC)c(O)c(OC)c3)C(=O)N(C)C)c2-c2ccc(OC)cc2)cc1 [Compound 8]
[C] CCOC(=O)C(=Cc1cc(OC)c(O)c(OC)c1)C(=O)NCCc1onc(-c2ccc(OC)cc2)c1-c1ccc(OC)cc1 [Compound 1]
Thanks in advance: please rank these 3 entries by pIC50, highest to lowest. Rank the items, then write their labels in that order.
A, B, C

----------
Target: Cyclooxygenase
Assay: Cyclooxygenase inhibiting effect (prostaglandin E2 formation from 14C-arachidonic acid, seminal vesicular gland microsomes)
Conditions: seminal vasicular gland microsomes, prostaglandin E2 radioactivity
Description: (1) Cyclooxygenase inhibiting effect This assay was carried out by the method described in Russell J. Taylor et al., Biochem. Pharmacol., 25, 2479-2484 (1976). ^14 C-arachidonic acid was reacted with seminal vasicular gland microsomes and the test drugs at various concentrations over a predetermined period of time and the obtained prostaglandin E2 was separated by thin layer chromatography. The radioactivity of prostaglandin E2 was determined by liquid scintillation counter. […]
pIC50: −log10 of the molar value.
measured.quantity: pIC50

[P] COc1ccc(-c2noc(CCNC(=O)C(=Cc3cc(OC)c(O)c(OC)c3)c3ccccn3)c2-c2ccc(OC)cc2)cc1
[Q] COc1ccc(-c2noc(CCNC(=O)C(C#N)=CC=Cc3cc(OC)c(O)c(OC)c3)c2-c2ccc(OC)cc2)cc1
Sorting by pIC50 in descending order, would P or Q appear first? Identify your selection by its label.
Q
